- System: MCF-7 breast cancer cell line
- method description: MTT assay, cytotoxicity against breast cancer cell line MCF-7
- condition info: Homo sapiens, MCF7, 48 h, read-out: In vitro cytotoxicity IC50 MCF-7
For each entry below, report its pIC50 value.
Answers are plain numbers, as −log10 of the molar value.

Solved cases below.
| compound | quantitative result |
| --- | --- |
| CC(=O)N1N=C(c2ccc(Cl)cc2)CC1c1ccc(Oc2ccc(Br)cc2)cc1 (stereo not drawn) [Compound 3a] | 4.98 |
| Cc1ccc(C(=O)C=Cc2ccc(Oc3ccc(Cl)cc3)cc2)cc1 [Compound 2f] | 5.73 |

Continue with the compound presented below.
Quick check: pIC50 on MCF-7 breast cancer cell line, item O=C(C=Cc1ccc(Oc2ccc(Br)cc2)cc1)c1ccc(Cl)cc1 [Compound 2a] ?
5.07

----------
- method description: in vitro
- condition info: human
observation type: IC50 (µM)
One number for each entry, in µM.

Looking for the measured IC50 of `Cc1ccc(C(=O)C=Cc2ccc(Oc3ccc(Br)cc3)cc2)cc1` , can you help?
23.2
